The measurements presented in this section are drawn from ChEMBL document CHEMBL1146690.

- EXPERIMENTAL SYSTEM: Fibroblast growth factor receptor 1 (Homo sapiens, UniProt P11362)
- Sequence (P11362 whole entry): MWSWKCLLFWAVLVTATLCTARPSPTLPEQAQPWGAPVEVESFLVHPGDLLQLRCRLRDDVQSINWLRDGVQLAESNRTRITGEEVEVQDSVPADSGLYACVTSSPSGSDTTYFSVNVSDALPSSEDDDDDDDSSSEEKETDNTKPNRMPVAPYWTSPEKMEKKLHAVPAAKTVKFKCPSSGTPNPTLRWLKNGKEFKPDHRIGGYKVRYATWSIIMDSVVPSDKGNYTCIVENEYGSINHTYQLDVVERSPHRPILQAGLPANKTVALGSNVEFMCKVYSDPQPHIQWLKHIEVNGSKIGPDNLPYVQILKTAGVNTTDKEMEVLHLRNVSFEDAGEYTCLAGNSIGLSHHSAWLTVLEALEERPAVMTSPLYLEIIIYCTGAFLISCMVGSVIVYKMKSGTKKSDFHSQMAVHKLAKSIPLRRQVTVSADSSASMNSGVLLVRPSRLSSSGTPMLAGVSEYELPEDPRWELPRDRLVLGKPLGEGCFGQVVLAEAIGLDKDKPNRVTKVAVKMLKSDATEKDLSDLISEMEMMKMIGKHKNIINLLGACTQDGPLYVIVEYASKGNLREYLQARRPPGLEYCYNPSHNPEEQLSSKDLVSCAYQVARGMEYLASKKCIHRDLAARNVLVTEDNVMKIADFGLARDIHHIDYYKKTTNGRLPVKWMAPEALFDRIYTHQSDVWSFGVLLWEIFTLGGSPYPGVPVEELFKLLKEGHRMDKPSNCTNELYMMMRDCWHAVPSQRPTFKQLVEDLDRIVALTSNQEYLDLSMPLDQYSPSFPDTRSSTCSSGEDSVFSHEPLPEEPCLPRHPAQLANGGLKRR
REPORTED PROPERTY: pIC50
Answers are plain numbers, as −log10 of the molar value.

> print(dat)
                         structure.notation  reported.property  measured.number
1  CCS(=O)(=O)c1ccc2c(c1)/C(=C/c1[nH]c3c(c1CCCN1CCN(CCO)CC1)CCCC3)C(=O)N2              pIC50             5.96

Hi! Can you tell me pIC50 for each of these compounds?
1. CNS(=O)(=O)c1ccc2c(c1)/C(=C/c1[nH]c3c(c1CCCN1CCC(O)CC1)CCCC3)C(=O)N2
2. CCS(=O)(=O)c1ccc2c(c1)/C(=C/c1[nH]c3c(c1CCC(N)=O)CCCC3)C(=O)N2
3. CCS(=O)(=O)c1ccc2c(c1)/C(=C/c1[nH]c3c(c1CN1CCOCC1)CCCC3)C(=O)N2
4. CCOC(=O)CN1CCN(CCCc2c(/C=C3\C(=O)Nc4ccc(S(=O)(=O)NC)cc43)[nH]c3c2CCCC3)CC1
5. CCS(=O)(=O)c1ccc2c(c1)/C(=C/c1[nH]c3c(c1CCCN(C)C)CCCC3)C(=O)N2
6. CNS(=O)(=O)c1ccc2c(c1)/C(=C/c1[nH]c3c(c1CCC(N)=O)CCCC3)C(=O)N2
7. CNS(=O)(=O)c1ccc2c(c1)/C(=C/c1[nH]c3c(c1CCCN1CCN(CCO)CC1)CCCC3)C(=O)N2

Result ::
5.47
7.10
6.40
7.10
6.40
7.15
6.22

Hi! Can you tell me pIC50 for each of these compounds?
1. CNS(=O)(=O)c1ccc2c(c1)/C(=C/c1[nH]c3c(c1CCCN1CCN(C)CC1)CCCC3)C(=O)N2
2. CNS(=O)(=O)c1ccc2c(c1)/C(=C/c1[nH]c3c(c1CN1CCOCC1)CCCC3)C(=O)N2

Result ::
5.92
6.70
